target system: 5-hydroxytryptamine receptor 1A (Rattus norvegicus, UniProt P19327)
Sequence (P19327 whole entry): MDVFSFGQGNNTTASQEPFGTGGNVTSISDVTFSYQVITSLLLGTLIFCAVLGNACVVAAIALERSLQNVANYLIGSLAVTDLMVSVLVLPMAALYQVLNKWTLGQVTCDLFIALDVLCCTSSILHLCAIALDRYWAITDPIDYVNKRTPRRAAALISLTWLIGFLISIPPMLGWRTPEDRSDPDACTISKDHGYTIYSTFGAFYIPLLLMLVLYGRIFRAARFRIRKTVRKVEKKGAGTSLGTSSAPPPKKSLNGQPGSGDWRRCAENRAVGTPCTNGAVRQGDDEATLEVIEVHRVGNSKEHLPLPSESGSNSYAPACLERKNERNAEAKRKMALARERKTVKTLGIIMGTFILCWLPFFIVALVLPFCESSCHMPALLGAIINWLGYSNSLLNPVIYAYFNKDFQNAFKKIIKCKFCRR
observed property: pKi
Formally, pKi is defined as -log10 of the concentration c, with c in mol/L.

These solved cases illustrate the format of a correct answer.
molecule: CCCN(CCC)C1CCc2cccc(C(=O)c3ccccc3)c2C1 (racemic)
pKi: 8.55

molecule: CCCN(CCC)[C@@H]1CCc2cccc(CO)c2C1
pKi: 7.64

So, C#Cc1cccc2c1C[C@H](N(CCC)CCC)CC2 ? Its pKi was 7.66

So, CCCN(CCC)[C@H]1CCc2cccc(C(=O)c3ccccc3)c2C1 ? Its pKi was 7.80

So, CCCN(CCC)C1CCc2cccc(C)c2C1 (racemic) ? Its pKi was 7.38

So, CCCN(CCC)C1CCc2cccc(C#N)c2C1 (racemic) ? Its pKi was 7.59

So, CCCN(CCC)C1CCc2cccc(C(N)=O)c2C1 (racemic) ? Its pKi was 8.22

So, CCCN(CCC)[C@H]1CCc2cccc(C#N)c2C1 ? Its pKi was 7.43

So, C#Cc1cccc2c1C[C@@H](N(CCC)CCC)CC2 ? Its pKi was 7.80

So, CCCN(CCC)C1CCc2ccccc2C1 (racemic) ? Its pKi was 7.43

So, CCCN(CCC)[C@@H]1CCc2cccc(C(=O)c3ccccc3)c2C1 ? Its pKi was 8.34

So, CCCN(CCC)C1CCc2cccc(C(=O)OC)c2C1 (racemic) ? Its pKi was 8.62

So, CCCCC(=O)c1cccc2c1CC(N(CCC)CCC)CC2 (racemic) ? Its pKi was 7.72

So, CCCN(CCC)C1CCc2cccc(-c3ccccc3)c2C1 (racemic) ? Its pKi was 7.92

* * *

target system: 5-hydroxytryptamine receptor 1A (Rattus norvegicus) (UniProt P19327)
Sequence (whole entry): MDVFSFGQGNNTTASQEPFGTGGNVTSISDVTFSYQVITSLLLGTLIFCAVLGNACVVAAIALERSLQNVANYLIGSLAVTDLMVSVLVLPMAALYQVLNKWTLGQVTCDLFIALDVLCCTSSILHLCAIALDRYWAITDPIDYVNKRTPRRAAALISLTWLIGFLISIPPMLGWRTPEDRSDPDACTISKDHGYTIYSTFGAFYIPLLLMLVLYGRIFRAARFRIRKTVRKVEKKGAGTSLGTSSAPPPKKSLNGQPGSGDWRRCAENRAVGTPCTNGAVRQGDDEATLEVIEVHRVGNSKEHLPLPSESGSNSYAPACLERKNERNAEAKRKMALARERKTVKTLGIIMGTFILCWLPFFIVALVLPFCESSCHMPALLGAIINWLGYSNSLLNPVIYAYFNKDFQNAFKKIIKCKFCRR
assay remarks: Number of rats displaying the 5-HT syndrome or leaving the cage out of the number of rats tested
Assay type: functional
observed property: No. of rats
Answer using only a numeral; do not append any unit.

These solved cases illustrate the format of a correct answer.
compound: CCCN(CCC)[C@H]1CCc2cccc(OC)c2C1
endpoint result: 0
//
compound: CCCN(CCC)[C@@H]1CCc2ccccc2C1
endpoint result: 4
//
compound: CCCN(CCC)[C@H]1CCc2cccc(CO)c2C1
endpoint result: 0
//
compound: CCCN(CCC)[C@H]1CCc2cccc(OS(=O)(=O)C(F)(F)F)c2C1
endpoint result: 1
//
compound: CCCN(CCC)[C@H]1CCc2cccc(-c3ccccc3)c2C1
endpoint result: 4

The reported No. of rats value, 5-hydroxytryptamine receptor 1A (Rattus norvegicus) (UniProt P19327), for CCCN(CCC)[C@@H]1CCc2cccc(C(C)=O)c2C1 reads 0

The reported No. of rats value, 5-hydroxytryptamine receptor 1A (Rattus norvegicus) (UniProt P19327), for C#Cc1cccc2c1C[C@@H](N(CCC)CCC)CC2 reads 0

The reported No. of rats value, 5-hydroxytryptamine receptor 1A (Rattus norvegicus) (UniProt P19327), for CCCN(CCC)C1CCc2ccccc2C1 (racemic) reads 4

The reported No. of rats value, 5-hydroxytryptamine receptor 1A (Rattus norvegicus) (UniProt P19327), for CCCN(CCC)[C@@H]1CCc2cccc(C)c2C1 reads 0

The reported No. of rats value, 5-hydroxytryptamine receptor 1A (Rattus norvegicus) (UniProt P19327), for CCCN(CCC)[C@H]1CCc2cccc(O)c2C1 reads 0

The reported No. of rats value, 5-hydroxytryptamine receptor 1A (Rattus norvegicus) (UniProt P19327), for C#Cc1cccc2c1C[C@H](N(CCC)CCC)CC2 reads 0
